- runDescription: collision cross section in nitrogen (drift tube, single-field); higher = larger gas-phase ion size;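 further: chemical standards at 10 µM analysed by drift tube IMS-QTOF MS in about 3.95 torr nitrogen, mean of duplicate injections differing ≤1%, mass error below 10 ppm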
- reportedConditions: ion source: ESI; ion mode: Positive; ion type: [M]+ (permanent cation)

[
  {
    "compound": "CCCCCCCCCCCCCCCC[N+](C)(C)C [Hexadecyltrimethylammonium bromide]",
    "collision cross section in nitrogen, Å²": 195.1
  },
  {
    "compound": "CN(C)c1ccc(C(=C2C=CC(=[N+](C)C)C=C2)c2ccccc2)cc1 [Malachite green]",
    "collision cross section in nitrogen, Å²": 188.9
  },
  {
    "compound": "CCNc1ccc(C(=C2C=CC(=[N+](CC)CC)C=C2)c2ccc(N(CC)CC)cc2)c2ccccc12 [Basic Blue 7]",
    "collision cross section in nitrogen, Å²": 240.6
  },
  {
    "compound": "CCOc1ccc2c(ccc(C=Cc3cccc([N+](=O)[O-])c3)[n+]2C)c1 [Pinakryptol Yellow]",
    "collision cross section in nitrogen, Å²": 189.2
  },
  {
    "compound": "CC[N+](CC)(CC)Cc1ccccc1 [Benzyl trialkyl ammonium compound C2:C2:C2 (BTAAC C2:C2:C2)]",
    "collision cross section in nitrogen, Å²": 143.1
  },
  {
    "compound": "CCCCCCCCCCCCCCCC[n+]1ccccc1 [Cetylpyridinium bromide]",
    "collision cross section in nitrogen, Å²": 194.3
  },
  {
    "compound": "CCCCCCCCCCCCCC[N+](C)(C)C [Myristyltrimethylammonium chloride]",
    "collision cross section in nitrogen, Å²": 185.7
  },
  {
    "compound": "CCCCCCCCCCCC[N+](C)(C)C [Dodecyltrimethylammonium chloride]",
    "collision cross section in nitrogen, Å²": 175.9
  },
  {
    "compound": "CCCC[N+](C)(CCCC)CCCC [N,N-Dibutyl-N-methylbutan-1-aminium chloride]",
    "collision cross section in nitrogen, Å²": 154.5
  },
  {
    "compound": "CCCC[N+]1(C)CCCC1 [1-Butyl-1-methylpyrrolidinium chloride]",
    "collision cross section in nitrogen, Å²": 132.4
  },
  {
    "compound": "CCCCCCCCCCCC[N+](C)(C)CCCCCCCCCCCC [Didodecyldimethylammonium bromide]",
    "collision cross section in nitrogen, Å²": 225.6
  },
  {
    "compound": "CN(C)c1ccc(C(=C2C=CC(=[N+](C)C)C=C2)c2ccc(N(C)C)cc2)cc1 [Gentian Violet]",
    "collision cross section in nitrogen, Å²": 205.8
  },
  {
    "compound": "CCCCCCCCCC[N+](C)(C)CCCCCCCCCC [Didecyldimethylammonium chloride]",
    "collision cross section in nitrogen, Å²": 209.1
  },
  {
    "compound": "CCCCCCCCCCCC[N+](C)(C)Cc1ccccc1 [Benzalkonium chloride C12 (BAC C12)]",
    "collision cross section in nitrogen, Å²": 193.9
  },
  {
    "compound": "C[N+](C)(C)Cc1ccccc1 [Benzyltrimethylammonium hydroxide]",
    "collision cross section in nitrogen, Å²": 131.3
  },
  {
    "compound": "CCCCCCCCCCCCCCCC[n+]1ccccc1 [Cetylpyridinium chloride]",
    "collision cross section in nitrogen, Å²": 193.7
  },
  {
    "compound": "C[N+](C)(C)CC1CO1 (stereo unspecified) [Glycidyl trimethylammonium chloride]",
    "collision cross section in nitrogen, Å²": 120.7
  },
  {
    "compound": "CCCCCCCC[N+](C)(CCCCCCCC)CCCCCCCC [Methyltrioctylammonium chloride]",
    "collision cross section in nitrogen, Å²": 221.8
  },
  {
    "compound": "Cn1c(-c2ccccc2)cc(-c2ccccc2)[n+]1C [Difenzoquat metilsulfate]",
    "collision cross section in nitrogen, Å²": 160.8
  },
  {
    "compound": "CCCCCCCCCCCCCCCCCC[N+](C)(C)Cc1ccccc1 [Benzalkonium chloride C18 (BAC C18)]",
    "collision cross section in nitrogen, Å²": 216.6
  },
  {
    "compound": "c1ccc(C[n+]2cccc3ccccc32)cc1 [1-Benzylquinolinium chloride]",
    "collision cross section in nitrogen, Å²": 148
  },
  {
    "compound": "CCN(CC)c1ccc2c(-c3ccccc3C(=O)O)c3ccc(N(CC)CC)cc3[o+]c2c1 [Rhodamine B]",
    "collision cross section in nitrogen, Å²": 218.1
  },
  {
    "compound": "CN(C[C@@H](CC[N+]12CCC(C3CCCCC3)(CC1)CC2)c1ccc(Cl)c(Cl)c1)C(=O)c1cc(C(F)(F)F)cc(C(F)(F)F)c1",
    "collision cross section in nitrogen, Å²": 262.3
  },
  {
    "compound": "CCCCCCCCCCCC[N+](C)(C)C [Dodecyltrimethylammonium bromide]",
    "collision cross section in nitrogen, Å²": 175.8
  },
  {
    "compound": "CCCCCCCCCCCCCC[N+](C)(C)C [Tetradonium bromide]",
    "collision cross section in nitrogen, Å²": 185.7
  },
  {
    "compound": "C[N+](C)(C)Cc1ccccc1 [Benzyltrimethylammonium chloride]",
    "collision cross section in nitrogen, Å²": 131.9
  }
]
